Reference source: ChEMBL document CHEMBL1909046

Experiment: DRUGMATRIX: beta-Lactamase enzyme inhibition (substrate: Nitrocefin)
Set-up: species or system Bacillus cereus
Details: Not Active = under 50% inhibition at 10 µM
propertyLabel: IC50

CN(C)c1ccc(C(=C2C=CC(=[N+](C)C)C=C2)c2ccc(N(C)C)cc2)cc1.[Cl-] :: Not Active
[H]/N=C(/N)N[C@H]1[C@H](O)[C@@H](O)[C@H](O[C@@H]2O[C@@H](C)[C@](O)(C=O)[C@H]2O[C@@H]2O[C@@H](CO)[C@H](O)[C@@H](O)[C@@H]2NC)[C@@H](N/C(N)=N\[H])[C@@H]1O :: Not Active
O=C(C1CCCCC1)N1CC(=O)N2CCc3ccccc3C2C1 (stereo not drawn) :: Not Active
CCCC(=O)Nc1ccc(OCC(O)CNC(C)C)c(C(C)=O)c1 (stereo not drawn) :: Not Active
O=C(N[C@H](CO)[C@H](O)c1ccc([N+](=O)[O-])cc1)C(Cl)Cl :: Not Active
CC(=O)Nc1ccc(O)cc1 :: Not Active
CC(C)(Oc1ccc(C2CCCc3ccccc32)cc1)C(=O)O (stereo not drawn) :: Not Active
Oc1ccc(OCc2ccccc2)cc1 :: Not Active
